target: GST-Hu-p50 (Homo sapiens, UniProt P19838 7-356); test: protein-binding microarray (PBM); PBM: ~300 nM protein, 6 mM HEPES pH 7.8, 80 mM KCl, 0.5 mM EDTA, 0.5 mM EGTA, 6% glycerol, 35 ng/ul poly-dIdC, 1% milk, 1 h, room temperature; high values mean tight binding; settings: dsDNA, one strand shown
Sequence (P19838 7-356): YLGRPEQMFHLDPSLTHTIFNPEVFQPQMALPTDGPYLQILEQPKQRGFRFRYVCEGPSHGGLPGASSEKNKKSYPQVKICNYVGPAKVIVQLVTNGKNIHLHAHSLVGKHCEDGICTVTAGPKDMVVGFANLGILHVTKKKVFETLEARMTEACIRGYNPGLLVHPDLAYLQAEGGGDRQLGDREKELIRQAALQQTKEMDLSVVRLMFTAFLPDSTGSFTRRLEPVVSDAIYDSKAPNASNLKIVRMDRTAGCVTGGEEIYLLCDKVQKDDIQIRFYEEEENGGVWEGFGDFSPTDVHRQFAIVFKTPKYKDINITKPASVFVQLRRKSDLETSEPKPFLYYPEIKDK
Kindly supply the reported binding signal values for the records listed here.
Answers are plain numbers, in z-score.

Known binding signal results, listed for orientation:
- entry.sequence: "CCGATTAACATCAGGGGGTACAATGATGTTAATCGGGTCTTGATTCGCTTGACGCTGCTG"
  readout.unit: "z-score"
  binding signal: 3.09
- entry.sequence: "CCGATTAACATCAGGGGGGAATATGATGTTAATCGGGTCTTGATTCGCTTGACGCTGCTG"
  readout.unit: "z-score"
  binding signal: 6.79

Let's switch to this sequence now.
Fill in: binding signal of CCGATTAACATCAACAAATTCCCTGATGTTAATCGGGTCTTGATTCGCTTGACGCTGCTG is ___ 4.56

* * *

Target: GST-Nv-NF-kB (Ser allele) (Nematostella vectensis, UniProt A7UNT2 2-411)
Sequence: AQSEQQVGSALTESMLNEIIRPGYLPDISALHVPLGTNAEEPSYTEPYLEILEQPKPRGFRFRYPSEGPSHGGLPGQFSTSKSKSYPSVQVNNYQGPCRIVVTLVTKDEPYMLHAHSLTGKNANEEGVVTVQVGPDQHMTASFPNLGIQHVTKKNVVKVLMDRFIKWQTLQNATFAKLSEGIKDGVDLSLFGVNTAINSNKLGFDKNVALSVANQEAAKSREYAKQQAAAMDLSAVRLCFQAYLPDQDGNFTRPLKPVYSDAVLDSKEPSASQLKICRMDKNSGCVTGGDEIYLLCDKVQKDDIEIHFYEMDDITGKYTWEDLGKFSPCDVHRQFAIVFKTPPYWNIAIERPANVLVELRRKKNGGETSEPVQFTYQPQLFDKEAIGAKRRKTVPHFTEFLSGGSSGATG
Assay: protein-binding microarray (PBM); PBM: ~300 nM protein, 6 mM HEPES pH 7.8, 80 mM KCl, 0.5 mM EDTA, 0.5 mM EGTA, 6% glycerol, 35 ng/ul poly-dIdC, 1% milk, 1 h, room temperature; high values mean tight binding
Conditions: dsDNA, one strand shown
measured.quantity: binding signal (z-score)
Give bare numbers, in z-score.

Known binding signal results, listed for orientation:
- entry.sequence: "CCGATTAACATCACTATTTCCCCTGATGTTAATCGGGTCTTGATTCGCTTGACGCTGCTG"
  binding signal (z-score): 9.8
- entry.sequence: "CCGATTAACATCAAGGGGGGGCGTGATGTTAATCGGGTCTTGATTCGCTTGACGCTGCTG"
  binding signal (z-score): 4.86
- entry.sequence: "CCGATTAACATCACGGGGGATTCTGATGTTAATCGGGTCTTGATTCGCTTGACGCTGCTG"
  binding signal (z-score): 8.48
- entry.sequence: "CCGATTAACATCAGGGGGATTCATGATGTTAATCGGGTCTTGATTCGCTTGACGCTGCTG"
  binding signal (z-score): 8.48

Let's switch to this sequence now.
Fill in: binding signal of CCGATTAACATCAGGGGTAGAACTGATGTTAATCGGGTCTTGATTCGCTTGACGCTGCTG is ___ 1.11

* * *

Biological target: GST-Aq-NF-kB (Amphimedon queenslandica, UniProt A9Y5G7 2-389)
Sequence: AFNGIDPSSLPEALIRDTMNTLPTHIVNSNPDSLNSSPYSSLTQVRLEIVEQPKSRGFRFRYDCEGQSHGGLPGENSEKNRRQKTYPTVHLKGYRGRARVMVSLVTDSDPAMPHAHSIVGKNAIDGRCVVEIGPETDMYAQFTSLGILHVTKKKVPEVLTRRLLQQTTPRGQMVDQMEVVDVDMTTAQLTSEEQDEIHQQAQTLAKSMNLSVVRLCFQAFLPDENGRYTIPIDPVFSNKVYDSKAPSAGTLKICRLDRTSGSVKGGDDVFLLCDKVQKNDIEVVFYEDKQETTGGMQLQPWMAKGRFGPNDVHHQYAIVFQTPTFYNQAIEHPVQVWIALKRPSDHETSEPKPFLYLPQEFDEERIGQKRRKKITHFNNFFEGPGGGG
Experiment: protein-binding microarray (PBM); PBM: ~300 nM protein, 6 mM HEPES pH 7.8, 80 mM KCl, 0.5 mM EDTA, 0.5 mM EGTA, 6% glycerol, 35 ng/ul poly-dIdC, 1% milk, 1 h, room temperature; high values mean tight binding
Conditions: dsDNA, one strand shown
Lab note: anything with binding signal at or over 5 z-score counts as criterion met; the rest go in criterion not met.

These recorded examples may help you get a feel for the data.
- entry.sequence: "CCGATTAACATCAGGGTTTCACCTGATGTTAATCGGGTCTTGATTCGCTTGACGCTGCTG"
  assigned.label: "criterion not met"
- entry.sequence: "CCGATTAACATCAGGACAGTCCCTGATGTTAATCGGGTCTTGATTCGCTTGACGCTGCTG"
  assigned.label: "criterion met"
- entry.sequence: "CCGATTAACATCAAATTTCCCATTGATGTTAATCGGGTCTTGATTCGCTTGACGCTGCTG"
  assigned.label: "criterion not met"

Is binding signal for CCGATTAACATCAGATTTCCCACTGATGTTAATCGGGTCTTGATTCGCTTGACGCTGCTG at or above 5 z-score? criterion not met

* * *

Biological target: GST-Aq-NF-kB (Amphimedon queenslandica, UniProt A9Y5G7 2-389)
Sequence: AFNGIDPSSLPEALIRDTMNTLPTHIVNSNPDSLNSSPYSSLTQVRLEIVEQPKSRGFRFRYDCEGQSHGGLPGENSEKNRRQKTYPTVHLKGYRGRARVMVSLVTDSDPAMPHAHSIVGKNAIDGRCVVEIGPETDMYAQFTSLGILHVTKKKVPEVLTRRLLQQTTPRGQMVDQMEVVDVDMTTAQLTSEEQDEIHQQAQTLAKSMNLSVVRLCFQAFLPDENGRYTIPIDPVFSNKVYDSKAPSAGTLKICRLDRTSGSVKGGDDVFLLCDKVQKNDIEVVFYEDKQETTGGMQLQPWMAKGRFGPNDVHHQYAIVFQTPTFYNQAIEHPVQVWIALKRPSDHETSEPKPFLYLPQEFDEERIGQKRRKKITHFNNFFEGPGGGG
Experiment: protein-binding microarray (PBM); PBM: ~300 nM protein, 6 mM HEPES pH 7.8, 80 mM KCl, 0.5 mM EDTA, 0.5 mM EGTA, 6% glycerol, 35 ng/ul poly-dIdC, 1% milk, 1 h, room temperature; high values mean tight binding
Conditions: dsDNA, one strand shown
measured.quantity: binding signal
Kindly report the value followed by its unit.

Known binding signal results, listed for orientation:
- entry.sequence: "CCGATTAACATCAGGAAATAACCTGATGTTAATCGGGTCTTGATTCGCTTGACGCTGCTG"
  assay.system: "GST-Aq-NF-kB (Amphimedon queenslandica, UniProt A9Y5G7 2-389)"
  result: "4.91 z-score"
- entry.sequence: "CCGATTAACATCAGAATTACCCCTGATGTTAATCGGGTCTTGATTCGCTTGACGCTGCTG"
  assay.system: "GST-Aq-NF-kB (Amphimedon queenslandica, UniProt A9Y5G7 2-389)"
  result: "5.49 z-score"
- entry.sequence: "CCGATTAACATCAGGGGAGCCCCTGATGTTAATCGGGTCTTGATTCGCTTGACGCTGCTG"
  assay.system: "GST-Aq-NF-kB (Amphimedon queenslandica, UniProt A9Y5G7 2-389)"
  result: "8.27 z-score"

Take each entry in turn and give its binding signal.
1. CCGATTAACATCAAGGTACCCCCTGATGTTAATCGGGTCTTGATTCGCTTGACGCTGCTG
2. CCGATTAACATCAGGCAAATCCCTGATGTTAATCGGGTCTTGATTCGCTTGACGCTGCTG
3. CCGATTAACATCAAAATAATCCCTGATGTTAATCGGGTCTTGATTCGCTTGACGCTGCTG
4. CCGATTAACATCAGGAGATCCCCTGATGTTAATCGGGTCTTGATTCGCTTGACGCTGCTG

1: 3.11 z-score; 2: 4.16 z-score; 3: 5.15 z-score; 4: 8.6 z-score

* * *

Kindly supply the reported binding signal values for the records listed here.
Biological target: GST-Co-NF-kB (Capsaspora owczarzaki, UniProt F1ARL5 200-546)
Sequence: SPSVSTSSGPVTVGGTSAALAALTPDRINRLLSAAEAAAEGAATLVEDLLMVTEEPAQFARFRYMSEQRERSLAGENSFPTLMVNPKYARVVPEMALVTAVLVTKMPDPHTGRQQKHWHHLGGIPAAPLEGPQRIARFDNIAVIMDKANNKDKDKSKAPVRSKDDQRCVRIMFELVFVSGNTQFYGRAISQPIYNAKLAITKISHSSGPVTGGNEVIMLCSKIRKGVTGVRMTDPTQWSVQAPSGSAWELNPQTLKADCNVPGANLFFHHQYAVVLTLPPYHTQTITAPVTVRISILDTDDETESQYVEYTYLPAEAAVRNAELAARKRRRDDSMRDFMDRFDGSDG
Assay: protein-binding microarray (PBM); PBM: ~300 nM protein, 6 mM HEPES pH 7.8, 80 mM KCl, 0.5 mM EDTA, 0.5 mM EGTA, 6% glycerol, 35 ng/ul poly-dIdC, 1% milk, 1 h, room temperature; Ap Aiptasia and Nv Nematostella (sea anemones) / Co Capsaspora / Aq Amphimedon (sponge) / Dm Drosophila / Hu human; RHD is the Rel homology domain; high values mean tight binding
Conditions: dsDNA, one strand shown
Kindly report the value followed by its unit.

Known binding signal results, listed for orientation:
- entry.sequence: "CCGATTAACATCAAAAAATACCCTGATGTTAATCGGGTCTTGATTCGCTTGACGCTGCTG"
  binding signal: "3.1 z-score"
- entry.sequence: "CCGATTAACATCAGAGATCCCCCTGATGTTAATCGGGTCTTGATTCGCTTGACGCTGCTG"
  binding signal: "4.52 z-score"
- entry.sequence: "CCGATTAACATCAAAGTCCCGGGTGATGTTAATCGGGTCTTGATTCGCTTGACGCTGCTG"
  binding signal: "1.85 z-score"

Let's switch to this sequence now.
Fill in: binding signal of CCGATTAACATCAAGCCCCCCCCTGATGTTAATCGGGTCTTGATTCGCTTGACGCTGCTG is ___ 4.89 z-score
